Outcome Measure: pIC50
Would you please state pIC50, meaning minus log10 of the concentration in mol/L, as a bare number?

CCCc1nn(C)c2c(=O)[nH]c(-c3cc(S(=O)(=O)NC(=O)OC(C)C)ccc3OCC)nc12 tested on cGMP-specific 3',5'-cyclic phosphodiesterase (Homo sapiens) gave pIC50: 8.52

* * *

# Assay System: Phosphodiesterase (Trypanosoma cruzi)
# Sequence (Q53I59 whole entry): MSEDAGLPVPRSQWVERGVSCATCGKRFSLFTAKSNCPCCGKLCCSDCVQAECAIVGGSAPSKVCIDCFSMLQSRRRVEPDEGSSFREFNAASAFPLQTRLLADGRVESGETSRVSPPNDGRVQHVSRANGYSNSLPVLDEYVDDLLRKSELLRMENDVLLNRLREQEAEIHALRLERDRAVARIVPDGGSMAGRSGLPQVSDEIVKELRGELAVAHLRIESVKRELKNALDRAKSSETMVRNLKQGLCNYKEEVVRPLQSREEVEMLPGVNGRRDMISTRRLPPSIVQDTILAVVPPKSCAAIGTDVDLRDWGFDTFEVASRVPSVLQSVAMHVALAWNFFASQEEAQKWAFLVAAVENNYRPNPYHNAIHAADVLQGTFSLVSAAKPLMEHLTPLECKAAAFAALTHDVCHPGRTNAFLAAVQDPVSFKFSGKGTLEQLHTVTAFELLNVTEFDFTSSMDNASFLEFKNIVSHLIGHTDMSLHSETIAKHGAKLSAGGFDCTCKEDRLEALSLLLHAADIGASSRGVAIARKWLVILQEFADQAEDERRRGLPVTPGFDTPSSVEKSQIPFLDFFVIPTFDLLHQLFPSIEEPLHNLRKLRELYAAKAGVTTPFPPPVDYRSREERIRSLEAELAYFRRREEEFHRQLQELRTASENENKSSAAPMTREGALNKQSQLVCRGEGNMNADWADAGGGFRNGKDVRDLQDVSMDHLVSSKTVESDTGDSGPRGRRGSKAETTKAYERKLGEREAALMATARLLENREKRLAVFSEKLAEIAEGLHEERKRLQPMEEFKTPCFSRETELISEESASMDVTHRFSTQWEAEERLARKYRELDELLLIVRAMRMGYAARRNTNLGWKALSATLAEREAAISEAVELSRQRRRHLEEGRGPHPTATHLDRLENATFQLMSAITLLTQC
# Assay Details: Enzymatic Assay
# Experimental Conditions: pH 7.5; 24 °C
Outcome Measure: IC50 (µM)
Report as a plain number; the unit µM is understood.

CC(C)Cn1c(=O)n(C)c(=O)c2[nH]cnc21 tested on Phosphodiesterase (Trypanosoma cruzi) gave IC50: 68

CCOC(=O)c1cnc2c(cnn2CC)c1N=NC(C)C tested on Phosphodiesterase (Trypanosoma cruzi) gave IC50: 0.7

COc1ccc(Cc2nccc3cc(OC)c(OC)cc23)cc1OC tested on Phosphodiesterase (Trypanosoma cruzi) gave IC50: 25

COc1cc2c(cc1OC)-c1c/c(=N\c3c(C)cc(C)cc3C)n(C)c(=O)n1CC2 [CAS_5537] tested on Phosphodiesterase (Trypanosoma cruzi) gave IC50: 3.9
